- Tested on: KM12 colon
- ASSAY INFO: NCI tumour cell line growth inhibition, 48 h
TGI reference
ENDPOINT: TGI

INSERT INTO results (compound, endpoint, assay_value) VALUES
  ('O=C(Cc1ccccc1)Nn1c(-c2ccccc2)nc2ccccc2c1=O', 'TGI', '> 100 µM'),
  ('OCC(O)c1nc2ccc3[nH]ncc3c2c2c1CCCC2 (stereo not given)', 'TGI', '> 50 µM'),
  ('CCOC(=O)CC1C(COC(=O)NC)OC(n2cnc3c(NC(=O)Nc4ccccc4)ncnc32)C1O[Si](C)(C)C(C)(C)C (stereo not given)', 'TGI', '10.7 µM'),
  ('C[N+](C)(C)CC(=O)N/N=C(\C(=O)NC1=C(Cl)C(=O)c2ccccc2C1=O)C(C#N)c1csc(-c2ccc([N+](=O)[O-])cc2)n1 (stereo not given)', 'TGI', '> 100 µM'),
  ('O=c1[nH]c2cc(Cl)ccc2nc1/C(=N\O)C(O)c1ccc([N+](=O)[O-])cc1 (stereo not given)', 'TGI', '> 100 µM'),
  ('CCc1cc(CCC(=O)Nc2c(C)cccc2C)[nH]n1', 'TGI', '> 100 µM'),
  ('CC(=O)OC[C@@H](OC(C)=O)[C@H](OC(C)=O)[C@@H]1OC(C)(C)O[C@@H]1C1SCCCS1', 'TGI', '> 100 µM'),
  ('Cc1cn([C@@H]2O[C@H](CO[Si](C)(C)C(C)(C)C)[C@]3(O[C@H]3C(=O)NN)[C@H]2O[Si](C)(C)C(C)(C)C)c(=O)[nH]c1=O', 'TGI', '32.6 µM'),
  ('O=C1OC(O)C(Oc2c(Cl)cccc2Cl)=C1Cl (stereo not given)', 'TGI', '54.1 µM'),
  ('CCCCCCCCCCC1OC([C@@H](O)CC[C@H](O)C2CC[C@@H](CCCCCCCC(O)CC3=CC(C)OC3=O)O2)CCC1O (stereo not given in full)', 'TGI', '> 25 µM'),
  ('Cc1c(C(=O)/C=C/c2ccc(N(C)C)cc2)c(=O)n(-c2ccccc2)n1C', 'TGI', '> 100 µM'),
  ('O=S(=O)(/N=C(\NO)Nc1ccc(Cl)cc1)c1cccc2nsnc12', 'TGI', '> 100 µM'),
  ('CCN(CC)CCNC(=O)c1cn2c(ccc3sc4ccccc4c(=O)c32)n1', 'TGI', '24.9 µM'),
  ('CC1(CCC(=O)OC2CCCCC2)OCCO1', 'TGI', '> 100 µM'),
  ('C=C(Nc1ccc([N+](=O)[O-])cc1[N+](=O)[O-])c1c/c(=N\NC(N)=S)c2ccccc2o1', 'TGI', '> 100 µM'),
  ('O=c1[nH]nc(Cc2ccccc2)n1CCO', 'TGI', '> 100 µM'),
  ('CNC(=O)Cc1nc(-c2cccc(NS(=O)(=O)c3c(F)cccc3F)c2F)c(-c2ccnc(Nc3ccccc3)n2)s1', 'TGI', '> 50 µM'),
  ('Nc1nn2c(nc(N)c3c(N)[nH]nc32)c1N=Nc1ccc(Br)cc1', 'TGI', '> 75.8 µM'),
  ('O=S1Nc2c(Cl)cc(Cl)c3c(Cl)cc(Cl)c(c23)N1', 'TGI', '> 100 µM'),
  ('O=C(OCc1ncc(-c2ccc(C(F)(F)F)cc2)c(NC2CCCCCC2)n1)c1c(F)c(F)c(F)c(F)c1F', 'TGI', '42.5 µM');

---

- System: HCC-2998 colon
- ASSAY INFO: NCI tumour cell line growth inhibition, 48 h
TGI reference
ENDPOINT: TGI

INSERT INTO results (compound, assay_value) VALUES
  ('CCCC(CCC)C(=O)OCC1(CO)C/C(=C\c2ccc(F)cc2)C(=O)O1 (centres undefined)', '19.8 µM'),
  ('COc1ccc(OC)c(-c2cc(-c3ccc(Cl)cc3)nn2-c2ccc(S(=O)(=O)NC(C)=O)cc2)c1', '6.93 µM'),
  ('CC(=O)OC[C@@H](OC(C)=O)[C@H](OC(C)=O)[C@@H]1OC(C)(C)O[C@@H]1C1SCCCS1', '> 100 µM'),
  ('Cc1cc(S(=O)(=O)Nc2nc(N)nc(N(C)C)n2)c(SCC(=O)O)cc1Cl', '> 10 µM'),
  ('COc1ccc(N2C(=O)C3c4[nH]c5ccc(F)cc5c4C4CCC(c5ccccc5)CC4C3C2=O)cc1 (centres undefined)', '> 100 µM'),
  ('O=C(O)/C(Cc1ccc([N+](=O)[O-])cc1)=N\O', '> 100 µM'),
  ('CCOC(=O)C(Cc1cccn1C(=O)OC(C)(C)C)[N+](=O)[O-] (centres undefined)', '42.4 µM'),
  ('Nc1nn2c(nc(N)c3c(N)[nH]nc32)c1N=Nc1ccc(Br)cc1', '> 100 µM'),
  ('Cc1nc(N2CCC3(CC2)CO[C@@H](C)[C@H]3N)c(CO)nc1Sc1ccnc(N)c1Cl', '> 100 µM');

---

- Test system: MDA-MB-435
GI50 reference
ENDPOINT: GI50

INSERT INTO assay_data (molecule, assay_value) VALUES
  ('COc1ccc2nc3cc([N+](=O)[O-])ccc3c(NCCCN(C)C)c2c1', '0.247 µM'),
  ('CCN(CC)CCCC(C)N=C(C1=C(C(=NC(C)CCCN(CC)CC)c2cccc(OC)c2)C(=O)NC1=O)c1cccc(OC)c1 (configuration not stated)', '0.871 µM'),
  ('CCCC(CCC)C(=O)OCC1(CO)C/C(=C\c2ccc(F)cc2)C(=O)O1 (configuration not stated)', '2.43 µM'),
  ('Cc1cc(C)c(Cn2cnc3c(Cl)ncnc32)c(C)c1CCl', '> 100 µM'),
  ('COc1ccccc1CNCCCN1C(=O)c2ccc3c4c(ccc(c24)C1=O)C(=O)N(CCCCNCCCN)C3=O', '0.574 µM'),
  ('CCCCCCCCCCC1OC([C@@H](O)CC[C@H](O)C2CC[C@@H](CCCCCCCC(O)CC3=CC(C)OC3=O)O2)CCC1O (some centres not stated)', '1.59 µM'),
  ('Cc1nc(N2CCC3(CC2)CO[C@@H](C)[C@H]3N)c(CO)nc1Sc1ccnc(N)c1Cl', '> 100 µM'),
  ('CCC(CNc1cc(OC)cc2cccnc12)NC1CCCCC1 (configuration not stated)', '32.6 µM'),
  ('N#CCN/C=C\C(=O)c1ccc(Cl)cc1', '30.3 µM'),
  ('Cc1ccc(N(CC(=O)Nc2ccc(S(=O)(=O)N3CCC(N4CCCC4)CC3)cc2)S(=O)(=O)c2ccc(Cl)cc2)cc1', '1.69 µM'),
  ('COc1nc(N)nc2c1ncn2C1OC(CO)C(O)C1O (configuration not stated)', '> 5000 µM'),
  ('O=C(OCc1ncc(-c2ccc(C(F)(F)F)cc2)c(NC2CCCCCC2)n1)c1c(F)c(F)c(F)c(F)c1F', '15.8 µM');

---

- System: SK-MEL-28 melanoma
- ASSAY INFO: NCI tumour cell line growth inhibition, 48 h
ENDPOINT: TGI (µM)

INSERT INTO results (molecule, relation_qualifier, assay_value) VALUES
  ('CCn1c(-c2cc3ccccc3cc2O)nn(C(=O)c2c(Cl)cccc2Cl)c1=S', '>', 50),
  ('Clc1ccc(C2Nc3ccccc3C3=NCCN32)cc1 (stereo not given)', '=', 34.6),
  ('CC1(CCC(=O)OC2CCCCC2)OCCO1', '>', 100),
  ('CC(=O)OCC1OC(Oc2cc(C)c(O)cc2C/C=C(\C)CC/C=C(\C)CC(=O)CC(C)C)C(O)C(OC(C)=O)C1OC(C)=O (stereo not given)', '>', 50),
  ('CC(C)(C)CC(C)(C)NCc1cc(C(C)(C)C)cc(CNC(C)(C)CC(C)(C)C)c1O', '=', 17.6);

---

- Tested on: NCI-H23 lung
- ASSAY INFO: NCI tumour cell line growth inhibition, 48 h; in the data active = GI50 below about 0.43 µM; inactive = the rest
Labels: Y (active), N (inactive)

INSERT INTO results (compound, assigned_class) VALUES
  ('N#CC1=C(N)NC(N2CCOCC2)=NC12Nc1ccccc1N2', 'N'),
  ('CN1C(=O)N[C@H]2[C@@H]3NC(=O)c4ccc(Br)n4[C@@H]3C[C@]21O', 'Y'),
  ('C=C1CCC2C(C)(COC(=O)CC)C(OC(=O)CC)CCC2(C)C1C/C=C1/C(=O)OCC1OC(=O)CC (stereo not given)', 'N'),
  ('O=C(/C=C/c1ccccc1)n1c(-c2ccc(Cl)cc2)nc2ccccc21', 'N'),
  ('CCCCCCCCCCC1OC([C@@H](O)CC[C@H](O)C2CC[C@@H](CCCCCCCC(O)CC3=CC(C)OC3=O)O2)CCC1O (stereo not given in full)', 'N');

Source: PubChem BioAssay (NCI)
